- experimental-system: ScLsb1
- test-details: SPOT peptide array binding signal intensity (averaged, normalized) (arbitrary units (background-subtracted, floor 0; scale differs between SH3 domains)); higher = stronger binding of the SH3 domain to the peptide
reported-metric: SPOT peptide array binding signal intensity

binder: FVLRYYILIPHEQWD
endpoint-value: ≤ 0
//
binder: NNQRRKPLLLNIGDH
endpoint-value: ≤ 0
//
binder: ALKQKKIPPPFKPHL
endpoint-value: ≤ 0
